T/C by entry:
system: P388; test: In vivo antitumor activity against P-388 lymphocytic leukemia at the dose of 100 mg/kg; format: functional, Mus musculus
The response must contain the number and no unit.

[[record]]
query_smiles = "CCN(CC)CCNc1ccc(C)c2sc3c(N)cccc3c(=O)c12"
assayed_system = "P388"
assay_result = 113


## Input Form field: reported T/C of "CN(C)CCNc1ccc(N)c2sc3ccccc3c(=O)c12"
## Output 121

## Input Given the compound "CCN(CC)CCNc1ccc(N)c2sc3ccccc3c(=O)c12" , what is its reported T/C?
## Output 122

## Input Could you share which T/C value was measured for "CCN(CC)CCNc1ccc([N+](=O)[O-])c2sc3ccccc3c(=O)c12" ?
## Output 145

## Input Which T/C reading was recorded for the compound "CN(C)CCNc1ccc([N+](=O)[O-])c2sc3ccccc3c(=O)c12" ?
## Output 103

Values were extracted from ChEMBL document CHEMBL1122192.
